Data provenance is patent US12215093B2.

- study.target: EP4 (Homo sapiens)
- Sequence (P35408 whole entry): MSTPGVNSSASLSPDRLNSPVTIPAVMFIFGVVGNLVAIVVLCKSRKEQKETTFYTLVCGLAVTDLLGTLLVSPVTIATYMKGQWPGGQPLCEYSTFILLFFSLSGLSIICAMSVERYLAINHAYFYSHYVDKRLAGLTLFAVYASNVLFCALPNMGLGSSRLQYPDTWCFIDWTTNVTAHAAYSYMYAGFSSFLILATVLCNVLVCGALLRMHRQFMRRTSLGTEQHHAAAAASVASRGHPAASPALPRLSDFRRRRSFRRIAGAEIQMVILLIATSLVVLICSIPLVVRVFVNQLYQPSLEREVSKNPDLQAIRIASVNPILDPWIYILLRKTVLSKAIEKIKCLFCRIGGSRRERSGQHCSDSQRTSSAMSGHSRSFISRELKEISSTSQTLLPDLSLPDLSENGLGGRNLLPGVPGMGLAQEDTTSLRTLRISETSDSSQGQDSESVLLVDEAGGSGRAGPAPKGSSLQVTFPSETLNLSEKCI
- experiment.description: Functional calcium flux assay, EP4
- experimental.context: stably transfected HEK293 cells; PGE2 10 nM; read-out: EP4 Ca2+-flux assay IC50
endpoint.name: IC50 (nM)

[I] COc1ncc(-c2ccc(C(C)n3ccc4c(F)ccc(C(=O)NC5CC6(C5)CC(C(=O)O)C6)c43)cc2)cc1Cl (racemic)
[II] N#Cc1cccc(-c2ccc(Cn3ncc4c(Cl)ccc(C(=O)NC5CC6(C5)CC(C(=O)O)C6)c43)cc2)c1 (stereo not shown)
Inquiry: From the items above, decide which of I and II has the lower IC50 reading. Kindly state the label of the option you pick.
Reply text: II
(II: 1.1 nM, I: 11 nM)
